Each item that follows carries a reported GI50.
- Tested on: HOP-92
- test.summary: NCI tumour cell line growth inhibition, 48 h
Activity calls are given as the source filed them. No stated cut-off is given here; in the data, active = GI50 up to about 1.1 µM and inactive = higher.

NCCSCC(N)C(=O)O (stereo unspecified)
> 497 µM (inactive)
Cc1c(CC/C(=N\Nc2ccc([N+](=O)[O-])cc2[N+](=O)[O-])c2ccccc2)c2ccccc2n1C
97.7 µM (inactive)
CCOC(=O)c1cc2cc(N(C(C)=O)C(C)=O)ccc2s1
27.1 µM (inactive)
C/C(CC(=O)Nc1cc(C)ccc1C)=N/N=C(N)N
> 100 µM (inactive)
O=C(O)CCC1(C(=O)O)CCC(=O)c2ccccc21 (stereo unspecified)
> 100 µM (inactive)

Let's switch to this compound now.
Lookup: Look up GI50 for this compound: COC(=O)[C@H]1CC(=O)C=C2CCCC21 (stereo partly specified)
Found: > 100 µM (inactive)

---

Entries annotated with measured GI50
- System: KM12
- test.summary: NCI tumour cell line growth inhibition, 48 h
The source made the active and inactive calls. No stated cut-off is given here; in the data, active = GI50 up to about 1.1 µM and inactive = higher.

Example cases with answers are listed next.
COc1cc2c3c(n(C)c(=O)c2cc1OC)-c1cc2c(cc1C3=O)OCO2
> 100 µM (inactive)
C=CCC1(C)CCCCC1(O)C[S+]([O-])c1ccccc1 (stereo unspecified)
> 100 µM (inactive)
O=C(O)C#CCO
> 100 µM (inactive)
O=c1[nH]nc(Cc2ccc(Cl)cc2)n1CCO
> 100 µM (inactive)
COc1cc(/C=C2\C(=O)N(c3cccc(Cl)c3)C(c3ccccc3)S2(=O)=O)cc(OC)c1OC (stereo unspecified)
58.1 µM (inactive)

Now look at this entry.
Lookup: Requested read-out GI50, target or system KM12, entry COc1cc(O)c(C(=O)CC(C)=O)c(OC)c1
Found: > 100 µM (inactive)

---

- Tested on: SK-MEL-28
- test.summary: NCI tumour cell line growth inhibition, 48 h
Active and inactive are the calls of the source. No stated cut-off is given here; in the data, active = GI50 up to about 1.1 µM and inactive = higher.
GI50 values for the compounds below.

O=C(c1ccc(Cl)cc1Cl)N(C(=O)N1CCCCC1)c1ccccc1
> 100 µM (inactive)
c1ccc(CSC2(SCc3ccccc3)CCCC2)cc1
> 10 µM (inactive)
C(=N\c1ccc(-c2nc3ccccc3s2)cc1)/c1cccs1
> 100 µM (inactive)

# ---- query compound ----
Lookup: For the record Oc1ccc2ccccc2c1/N=N\c1cccc2ccccc12 , what value of GI50 is listed for SK-MEL-28?
Found: > 100 µM (inactive)

---

- Tested on: TK-10
- test.summary: NCI tumour cell line growth inhibition, 48 h
Activity calls are given as the source filed them. Rule as the data show it: active = GI50 up to about 1.1 µM and inactive = higher.
Your reply should match one of these outcome classes. y for active, n for inactive

Worked set:
CN(C)CCCN1N=Nc2cccc3cccc1c23
n
C=CCC1(C)CCCCC1(O)C[S+]([O-])c1ccccc1 (centres undefined)
n
COc1ccccc1-c1cc(O)c2cccnc2n1
n

Please turn your attention to the following entry.
Lookup: Identify the outcome logged in this assay for the compound shown: CCC(/C=C/C1OC(=O)C=CC1C)=C\C(C)C/C=C/C(C)=C/C(C)C(=O)C(C)C(O)C(C)C/C(C)=C/C(=O)O (centres undefined)
Found: y

---

- System: KM12
- test.summary: NCI tumour cell line growth inhibition, 48 h
Active and inactive are the calls of the source. Cut-off read from the data, not from the text of the source: active = GI50 up to about 1.1 µM and inactive = higher.
Reported GI50 by item:

Solved cases (5 shown):
CC(C)(C)OC(=O)NCCC1CNc2ccccc21 (centres undefined)
> 100 µM (inactive)
C[N+](C)(CCNc1ccc(NCC[N+](C)(C)Cc2ccc([N+](=O)[O-])cc2)c2c1C(=O)c1c(O)ccc(O)c1C2=O)Cc1ccc([N+](=O)[O-])cc1
1.36 µM (inactive)
O=c1ccc2ccc(O)c3c4c(O)ccc5ccc(=O)c(c1c23)c54
1.24 µM (inactive)
COc1ccccc1NC(=O)C(CC(C(=O)Nc1ccccc1OC)/C(C)=N/NC(=O)c1ccccc1O)/C(C)=N/NC(=O)c1ccccc1O (centres undefined)
> 100 µM (inactive)
CCCCCC(/C=C/C1CCC(=O)C1CC#C[Si](C)(C)C)OCc1ccccc1 (centres undefined)
16.2 µM (inactive)

Lookup: Tell me the measured GI50 of c1cncc(CC2(c3cc4ccccc4[nH]3)OCCO2)c1 , please.
Found: > 100 µM (inactive)

Lookup: O=c1[nH]c(=O)n(C2CC(O)C(CO)O2)cc1OCC1CCCCC1 (centres undefined) , same question.
Found: > 100 µM (inactive)

Lookup: Again, but for COC(=O)/C=C1/CCC(C(=O)OC)N1 (centres undefined)
Found: > 100 µM (inactive)

Lookup: And the next one, COc1cc(/C=C/C2=NN(c3cccc(S(=O)(=O)O)c3)C3(C2)C(Cl)C(=O)N3c2nc3ccccc3s2)ccc1O (centres undefined) ?
Found: 19.1 µM (inactive)

---

- Test system: NCI-H23
- test.summary: NCI tumour cell line growth inhibition, 48 h
The source made the active and inactive calls. Cut-off read from the data, not from the text of the source: active = GI50 up to about 1.1 µM and inactive = higher.
The reply should name one outcome from Y for active, N for inactive

# count of solved cases: 6
CCCCCCCCCCCCC(SCCNC(=O)CCNC(=O)C(O)C(C)(C)COP(=O)(O)OP(=O)(O)OCC1OC(n2cnc3c(N)ncnc32)C(O)C1OP(=O)(O)O)C(=O)NCC(N)=O (centres undefined)
N
CCC(/C=C/C1OC(=O)C=CC1C)=C\C(C)C/C=C/C(C)=C/C(C)C(=O)C(C)C(O)C(C)C/C(C)=C/C(=O)O (centres undefined)
Y
CN(N)/N=N/c1[nH]cnc1C(N)=O
N
O=c1[nH]c(=O)n(C2CC(O)C(CO)O2)cc1OCC1CCCCC1 (centres undefined)
N
N#Cc1c(=O)c2cccnc2n2c1[nH]c1ccccc12
N
COc1cc2c(cc1Cl)[n+]([O-])c(C#N)c(N1CCN(c3ccc([N+](=O)[O-])cc3)CC1)[n+]2[O-]
N

Lookup: Please let me know the test result on file for C[C@H](CS)C(=O)N1c2ccccc2C[C@H]1C(=O)O .
Found: N

Lookup: How about this compound: CC(=O)Oc1ccccc1C(=O)Nc1ncc([N+](=O)[O-])s1 [NITAZOXANIDE]
Found: N

Lookup: What do we get for COc1cccc(Nc2nc(NNC(=O)Cc3ccccc3)nc(NNC(=O)c3ccncc3)n2)c1 ?
Found: N

---

- Test system: HOP-92
- test.summary: NCI tumour cell line growth inhibition, 48 h
Active and inactive are the calls of the source. Cut-off read from the data, not from the text of the source: active = GI50 up to about 1.1 µM and inactive = higher.
Some molecules, each annotated with its measured GI50.

CC(=O)Oc1ccc2cc(Oc3ccc(Cl)c(Cl)c3)c(=O)oc2c1
20.3 µM (inactive)
C/C(=N\O)c1cccc(Nc2nc3ccccc3c3occc23)c1
5.3 µM (inactive)

Lookup: Can you share its GI50? I mean this molecule: O=C(CCc1nnc2s/c(=C\c3ccc(Cl)cc3Cl)c(=O)n12)Nc1cc(Cl)c(Cl)cc1Cl
Found: 24 µM (inactive)

---

- System: SN12C
- test.summary: NCI tumour cell line growth inhibition, 48 h
Activity calls are given as the source filed them. Cut-off read from the data, not from the text of the source: active = GI50 up to about 1.1 µM and inactive = higher. Where a SMILES comes first, the peptide text is derived from it. [ ]: non-standard residue; d: D form. The star is where a group is joined. Cbz = O=C(OCc1ccccc1)*; Aib = CC(C)(N)C(=O)O
Response enum: True (active), False (inactive)

Check out these entries, answers already filled in.
Cc1ccc(C(O)c2cnc(C)n2Cc2ccccc2)cc1 (stereo not given)
False
Cc1cc(CC(O)c2ccc(Cl)c(Cl)c2)nc(O)n1 (stereo not given)
False
NC(=S)N1N=C(c2ccccc2O)CC1c1ccccc1 (stereo not given)
False
CCOC(=O)c1ccc(NC2Oc3cc4c(cc3C(c3cc(OC)c(OC)c(OC)c3)C2C)OCO4)cc1 (stereo not given)
False
Cc1ccc(Cl)c2c1NC(=O)/C2=N\Nc1ccccc1[N+](=O)[O-]
False

Lookup: State the result this test recorded for CC(=O)OCC1OC(n2c3c(c(-c4ccco4)c(C#N)c2=S)CCC3)C(OC(C)=O)C(OC(C)=O)C1OC(C)=O (stereo not given) .
Found: False

Lookup: How about this compound: CCOP(=O)(OCC)C1CC(O)CN1OC(=O)C(C)(C)C (stereo not given)
Found: False

Lookup: Continue with CCOC(=O)[C@@H]1[C@@H]2NC(=O)N[C@@]1(C)Oc1ccccc12
Found: False

Lookup: Then C=C[C@@H](C)[C@]1(C(=O)OC)CCCC12OCCO2 ?
Found: False

Lookup: Proceed to CCCCCCCCCCCCCC(=O)NCC(OCC)OCC
Found: False

Lookup: Entry O=c1cc(N2CCCC2)[nH]c(=O)n1-c1ccc(F)cc1 please
Found: False

Lookup: Also CC(C)(NC(=O)C(C)(C)NC(=O)OCc1ccccc1)C(=O)O (Cbz-[Aib]-[Aib]-OH) ?
Found: False

Lookup: Also, CCCCCCCCCCCCCCCCCCNc1ccn(C2OC(CO)C(OP(=O)(O)OCC3CCC(n4ccc(N)nc4=O)O3)C2O)c(=O)n1 (stereo not given) please.
Found: False

Lookup: What about this compound? CCOC(=O)c1c[nH]c(C(=O)OCC)c1-c1cccn1-c1ccccc1
Found: False

Lookup: // same read-out, input: Cc1noc(NS(=O)(=O)c2ccc(NC(=O)c3ccc4[nH]c5ccccc5c(=O)c4c3)cc2)c1C
Found: False

Lookup: Try CN1C/C(=C\c2cccs2)C2=NN(C)C(c3cccs3)C2C1 (stereo not given) next.
Found: False

Lookup: Now consider CO/N=C/c1c(-c2ccc(Cl)cc2)c(/C=N/OC)n2c1sc1ccccc12 .
Found: False

Lookup: Also need O=C(O)Cc1cc(F)ccc1C(=O)O , thanks.
Found: False

Lookup: Check Cc1cc(C)c2c(c1)C/C(=C\c1cccc(C)c1C(=O)O)C2=O too.
Found: False

Lookup: Next record, please: COc1cc2cc(C(=O)N3CC(CCl)c4c3cc(NC(=O)C(C)Nc3c([N+](=O)[O-])cc(C(=O)NCCN(C)C)cc3[N+](=O)[O-])c3ccccc43)[nH]c2c(OC)c1OC (stereo not given)
Found: True
